Reference source: the supplement of paper PMC6555819

system: LXRa homodimer (NR concentration 270 nM); assay: PBM binding z-score (relative to random genomic background probes); higher = stronger binding; sequences stand for … in GC…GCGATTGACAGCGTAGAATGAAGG
Classification field: enter Criterion met for PBM binding z-score values not below 0.2, Criterion not met for values below it.

| seq text | assigned label |
| --- | --- |
| TCACATAGGTAAAAGGTGAAAGTCGGTGTGGTAA | Criterion not met |
| CAAACTAGGTCAGGGTCAAAGTCGGTTTGTGCCA | Criterion met |
| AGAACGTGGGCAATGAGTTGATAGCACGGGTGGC | Criterion not met |
| CCTACTGGGCCAAAGGTCATGGATTCCAATGCTC | Criterion met |

Query: Tell me whether PBM binding z-score is at least 0.2 here: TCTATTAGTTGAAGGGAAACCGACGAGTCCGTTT
Response: Criterion not met

Query: State whether the measured PBM binding z-score reaches 0.2, counting equality as reaching it, for TCTAGCAGGCCAGAGGGTCCCTCAAGAGGTACGG
Response: Criterion not met

Query: I'd appreciate it if you could say whether TTACCGAGGTGAAGGTCGTTGATCCCTCTGTAGA has PBM binding z-score at least equal to 0.2.
Response: Criterion not met

Query: Could you verify whether the entry ACTATTCGTTGACTTAGGGCAACCGATACGACGC shows PBM binding z-score of no less than 0.2?
Response: Criterion met

Query: Is the recorded value of PBM binding z-score equal to or greater than 0.2 for this sequence? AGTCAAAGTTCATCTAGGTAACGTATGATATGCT
Response: Criterion met

###

tested on: PPARg:RXRa 90nM:30nM, anti-RXR (NR concentration 90 nM, RXRa partner concentration 30 nM); test: PBM binding z-score (relative to random genomic background probes); higher = stronger binding; sequences stand for … in GC…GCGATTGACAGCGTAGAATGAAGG
recorded metric: PBM binding z-score
Returns: the value as a bare number; no unit string appended.

| seq text | PBM binding z-score |
| --- | --- |
| ACTAGTTGGTCAGCTGAGGTCATACACAATTCGG | 1.14 |
| ATCGACAGGTCGAAGGTGAGTATACCCACCCGAA | 2.75 |
| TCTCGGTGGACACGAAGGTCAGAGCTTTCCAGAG | 2.3 |
| TCATATAGGTAATACAGGTGAAAGTTGGCATCTA | 4.48 |
| GAAACGAGGGCAAGTTGATAGCAGAGTTTGATGG | 1.2 |
| CGACCAAGGTCAGCAGGTCAGTGAAAGCGACGTG | 3.02 |
| CCTAGCAGGCCAGGGTCAGTCAAGCATTTCGCTT | -0.0858 |
| ATCCCAAGGTGATCGTGAGGTCGTTGATACTAAC | -0.346 |

Here's the next entry for you.
Query: State, in one line, measured PBM binding z-score of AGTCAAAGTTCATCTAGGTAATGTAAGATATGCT
Response: 5.42

###

tested on: RARg:RXRa (NR concentration 270 nM, RXRa partner concentration 90 nM); assay: PBM binding z-score (relative to random genomic background probes); higher = stronger binding; sequences stand for … in GC…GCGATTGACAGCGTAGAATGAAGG
Catalogue of sequences with associated PBM binding z-score
I'd appreciate a reply containing only the number, no unit.

| seq text | value reported |
| --- | --- |
| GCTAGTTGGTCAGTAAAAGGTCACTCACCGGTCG | 5.05 |

Query: Annotate the sequence TCTTGTAGATCAACAGGAGGTTAAAAAAGATCGA with its measured PBM binding z-score.
Response: 0.947

Query: Give the reported PBM binding z-score for this sequence. TCTTGTAGATCAAAGGTTAAGAACGCCGAAGCCT
Response: 1.82

Query: Supply PBM binding z-score value. Item: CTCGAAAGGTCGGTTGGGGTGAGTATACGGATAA
Response: 3

Query: Give the measured PBM binding z-score for CTCGACAGGTCGTGCTCAGGTGAGTATACCAAAC
Response: 2.21

Query: Please indicate PBM binding z-score recorded for ATCGAAAGGTCGACGAGGTGAGTACACACCGTTT
Response: 4.26

###

test system: PPARg DBDmut IVT, anti-PPARg (DBD mutation: PPARg1 K132A/R137A, NR concentration 270 nM); test: PBM binding z-score (relative to random genomic background probes); higher = stronger binding; sequences stand for … in GC…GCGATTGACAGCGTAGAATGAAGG
Short version: PBM binding z-score at least 1 is 1, less is 0.

| seq text | assigned label |
| --- | --- |
| GGAACGAGGGCATTCGAGTTGATCGCATGGCGAT | 0 |
| TCTTTTAGATCAAGCAGGTTAAGAAAGCCTGAGT | 1 |
| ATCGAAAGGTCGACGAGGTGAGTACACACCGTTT | 1 |

Query: Does the sequence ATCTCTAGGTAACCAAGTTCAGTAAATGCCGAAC have recorded PBM binding z-score that is 1 or more?
Response: 1

Query: For this sequence, is measured PBM binding z-score 1 or higher? CCGACTGGGGCATTAGGTTACCATAAGCCAGCCC
Response: 0

Query: Reported PBM binding z-score at or above 1? TCATATAGGTAAACAGGGGAAAGTCCGTAAGTTA
Response: 0

###

tested on: PPARa:RXRa (NR concentration 270 nM, RXRa partner concentration 90 nM); assay: PBM binding z-score (relative to random genomic background probes); higher = stronger binding; sequences stand for … in GC…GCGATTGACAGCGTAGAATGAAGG
Label 1 when PBM binding z-score is at or above 4; otherwise label 0.

Some solved cases for reference:
| seq text | study system | assigned label |
| --- | --- | --- |
| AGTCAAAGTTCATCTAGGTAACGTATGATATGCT | PPARa:RXRa (NR concentration 270 nM, RXRa partner concentration 90 nM) | 1 |
| CCGACTGGGGCTAAGGTTACCATACTCAGTACGA | PPARa:RXRa (NR concentration 270 nM, RXRa partner concentration 90 nM) | 0 |
| TCTTGTAGATCAGGAGGTTAAGAAAGCTGGCCAA | PPARa:RXRa (NR concentration 270 nM, RXRa partner concentration 90 nM) | 0 |

Query: Is it the case that CTCGAAAGGTCGTGCTCCGGTGAGTATACCAAAC has PBM binding z-score reaching or exceeding 4?
Response: 1

Query: State whether the measured PBM binding z-score reaches 4, counting equality as reaching it, for CCGAGTAGGTTATGAGGCATTCAGGCAACGGTGA
Response: 0

Query: Quick check: does CAATCTAGGTCACCGGAAGGTCAAAGTCCGCATG have PBM binding z-score greater than or equal to 4?
Response: 1

Query: Could you please find out whether CCTAGTTGGTCAGGAGATCACACACCGGATATGA has PBM binding z-score that meets 4 or exceeds it?
Response: 0

Query: Check if PBM binding z-score >= 4 (inclusive). Item: CCTCGGAGGACAGATGGTCAGAGCTGTCCGCTTT
Response: 0

Query: # bool: PBM binding z-score of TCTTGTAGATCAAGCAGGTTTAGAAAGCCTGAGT >= 4
Response: 0

Query: PBM binding z-score >= 4 for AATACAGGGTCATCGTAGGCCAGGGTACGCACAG ?
Response: 1

Query: Determine whether this sequence has PBM binding z-score no lower than 4: ATATGTAGGTTACATCCGGTTCATTCAGGCTATG
Response: 0

Query: API: above_or_equal(metric=PBM binding z-score, cutoff=4) for item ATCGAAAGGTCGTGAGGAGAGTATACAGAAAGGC
Response: 1

Query: Given the entry GCTATTAGTGGAAAGGGCAACCGAATGATTCTCG , answer whether its PBM binding z-score meets or surpasses 4.
Response: 0

Query: Answer whether PBM binding z-score of ATCGAAAGGTCCAGGTGAGTATAGAGAAAGGGAA is greater than or equal to 4.
Response: 0

Query: Reported PBM binding z-score at or above 4? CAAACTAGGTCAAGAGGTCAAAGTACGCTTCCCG
Response: 1

###

tested on: RARg:RXRa (NR concentration 270 nM, RXRa partner concentration 90 nM); test: PBM binding z-score (relative to random genomic background probes); higher = stronger binding; sequences stand for … in GC…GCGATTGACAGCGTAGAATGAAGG
In this section, each of the sequences is paired with its reported PBM binding z-score.

As a guide, the following entries are already answered.
| seq text | study system | PBM binding z-score |
| --- | --- | --- |
| TCTTGTAGATGAACAGGAGGTTAAGAAAGATCGA | RARg:RXRa (NR concentration 270 nM, RXRa partner concentration 90 nM) | 0.473 |
| CCAGACAGGTGAGAAGGTCACTCAGCCTCGATTA | RARg:RXRa (NR concentration 270 nM, RXRa partner concentration 90 nM) | 4.65 |

Query: For RARg:RXRa (NR concentration 270 nM, RXRa partner concentration 90 nM), give PBM binding z-score of the listed sequence: ACAGACAGGTGAGTGTAGGTAACTCAGCTGGACG
Response: 0.259

Query: // fetch PBM binding z-score for TGAATGAGGTTAAAGATCAGGTAACGTGGCGTCG ; system: RARg:RXRa (NR concentration 270 nM, RXRa partner concentration 90 nM)
Response: 2.55

Query: Param request: PBM binding z-score | system RARg:RXRa (NR concentration 270 nM, RXRa partner concentration 90 nM) | item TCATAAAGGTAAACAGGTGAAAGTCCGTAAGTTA
Response: 1.34

Query: State the measured PBM binding z-score (RARg:RXRa (NR concentration 270 nM, RXRa partner concentration 90 nM)) of TCACATAGGTAAATGCTAGGTGAAAGTCCGATCT
Response: 0.301

Query: Name the value of PBM binding z-score reported for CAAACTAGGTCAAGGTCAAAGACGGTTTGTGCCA when tested on RARg:RXRa (NR concentration 270 nM, RXRa partner concentration 90 nM).
Response: 5.82

Query: State recorded PBM binding z-score with RARg:RXRa (NR concentration 270 nM, RXRa partner concentration 90 nM), entry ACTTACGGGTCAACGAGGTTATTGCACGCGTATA , no comment.
Response: 5.66

Query: Lab note: record PBM binding z-score of CCTTACTGGTCACTGACAGGTTATAGCATTTGGA tested on RARg:RXRa (NR concentration 270 nM, RXRa partner concentration 90 nM).
Response: 1.76

Query: Report measured PBM binding z-score on RARg:RXRa (NR concentration 270 nM, RXRa partner concentration 90 nM); entry: TCATATAGGTAAACAGGTAAAAGTCCGTAAGTTA
Response: 0.41

Query: Check RARg:RXRa (NR concentration 270 nM, RXRa partner concentration 90 nM) data and give PBM binding z-score for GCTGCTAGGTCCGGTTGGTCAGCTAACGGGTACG .
Response: -0.731

Query: Please tell me the measured PBM binding z-score for CCTAATGGGCCAAAAAGGTCATTGATGCCGATAA ; system: RARg:RXRa (NR concentration 270 nM, RXRa partner concentration 90 nM).
Response: 4.34
